Recorded pKd for the following binders
biological target: Aβ1-40 fibers (human); test: SPR
pKd: −log10 of the molar value.
measuredEndpoint: pKd

INSERT INTO measurements (binder, measuredendpoint, reportedresult) VALUES
  ('MS-R 7.11.H1 x 7.11.L1 IgG1 (antibody, V domains shown) VH: QLVESGGGLVQPGGSLRLSCAASGFTFSSYAMSWVRQAPGKGLEWVSGINAAGFRTYYADSVKGRFTISRDNSKNTLYLQMNSLRAEDTAVYYCARGKGNTHKPYGYVRYFDVWGQGTLVTVSS VL: DIVLTQSPATLSLSPGERATLSCRASQRILRIYLAWYQQKPGQAPRLLIYGASSRATGVPARFSGSGSGTDFTLTISSLEPEDFATYYCQQVYSPPHTFGQGTKVEIKR', 'pKd', 9.15),
  ('MS-R 7.9.H7 IgG1 (antibody, V domains shown) VH: QVELVESGGGLVQPGGSLRLSCAASGFTFSSYAMSWVRQAPGKGLEWVSAINASGTRTYYADSVKGRFTISRDNSKNTLYLQMNSLRAEDTAVYYCARGKGNTHKPYGYVRYFDVWGQGTLVTVSS VL: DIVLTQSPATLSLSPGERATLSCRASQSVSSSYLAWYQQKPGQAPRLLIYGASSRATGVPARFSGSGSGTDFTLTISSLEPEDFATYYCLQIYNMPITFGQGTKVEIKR', 'pKd', 9.16),
  ('MS-R 7.11.H1 x 7.2.L1 IgG1 (antibody, V domains shown) VH: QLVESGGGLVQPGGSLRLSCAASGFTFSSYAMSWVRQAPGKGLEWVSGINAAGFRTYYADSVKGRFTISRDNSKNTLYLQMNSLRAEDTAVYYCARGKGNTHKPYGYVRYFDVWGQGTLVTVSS VL: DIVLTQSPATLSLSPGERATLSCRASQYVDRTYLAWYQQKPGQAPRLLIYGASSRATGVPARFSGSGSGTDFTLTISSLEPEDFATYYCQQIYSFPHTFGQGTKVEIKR', 'pKd', 9.18),
  ('MS-R 7.9.H2 IgG1 (antibody, V domains shown) VH: QLVESGGGLVQPGGSLRLSCAASGFTFSSYAMSWVRQAPGKGLEWVSAINADGNRKYYADSVKGRFTISRDNSKNTLYLQMNSLRAEDTAVYYCARGKGNTHKPYGYVRYFDVWGQGTLVTVSS VL: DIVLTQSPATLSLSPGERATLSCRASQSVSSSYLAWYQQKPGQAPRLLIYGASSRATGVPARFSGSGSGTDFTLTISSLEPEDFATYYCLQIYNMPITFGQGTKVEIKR', 'pKd', 9.38);
